This listing pairs compounds with measured pIC50.
Test system: OCI-LY10
Experiment: CTG Cell Viability Assay - OCI-LY10
Type: cell-based, human
Conditions: Homo sapiens, OCI-Ly10, 96 h, OCI-LY10, 4 days; read-out: CTG Cell Viability Assay - OCI-LY10: Average external-IC50
Procedure: Compound-mediated viability effect on OCI-LY10 or TMD8 was quantitatively determined using the CellTiter-Glo® Luminescent Cell Viability Assay kit from Promega (Catalog number G7570) following manufacturer's recommended procedures. […] The data was then analyzed by software Prism 7.0 from GraphPad and the dose response curves were fit using a three-parameter logistic equation to calculate IC50.
pIC50: −log10 of the molar value.

Prompt: Request the reported pIC50 associated with CN(C[C@H]1CC[C@H](n2cc(NC(=O)c3cnn4ccc(N5CCOCC5)nc34)c(C(F)F)n2)CC1)[C@H]1CC[C@@H](Nc2cccc3c2C(=O)N(C2CCC(=O)NC2=O)C3=O)CC1 (some centres unmarked)
Response: < 6.00
